Data credit: the nanobody polyreactivity screen of Harvey et al. (2022)

Test: yeast display, Sf9 membrane polyspecificity reagent, FACS + sequencing; frameworks hold sequencing errors
Endpoint label: polyreactivity (PSR sort gate)

Worked examples follow.
QVQLVESGGGLVQAGGSLRLICAASGSIFLQYTMGWYRQAPGKERELVAAITESDGSTYYADSVKGRFTISRDNAKNTVYLQMNSLKPEDTGVYYCAAEVVYFKYWDKYDYWGQGTQVTVSS	low polyreactivity
QVQLVESGGGLVQAGGSLRLSCAASGITFDYYAMGWYRQAPGKERELVAAISRSGGSTYYADSVKGRFTISRDKAKNTVYLQMNSLKPEDTAVYYCAAYALTIRAYYYWGQGTQVTVSS	high polyreactivity
QVQLGESGGGLVQAGGSLRLTCAASGSIFRYYAMGWYRQAPGKERELVAAIRWSGGRTYYADSVKGRFTISRDNAKNTVYLQMNSLKPEDTAVYDCAADPPHYKPNVRYYYWGQGTQVTVSS	high polyreactivity
QVQLVESGGGLVQAGGSLRLSCAASGRIFGRNAMGWYRQAPGKERELVASITSGGGTNYADSVKGRFTISRDNAKNTVYLQMNCLKPEDTAVYYCAAKRHLEGYSGSIGRYYYWGQGTQVTVSS	low polyreactivity

QUERY: Bench note: what polyreactivity (PSR sort gate) did `QVQLVESGAGLVQAGGSLLLSCAASAFIFTPYTKGWYRQAPGKETELVAAITDGSSTYYADSVKRRFTISRDNAQNTVYVQMNSLKPEDTAVYYCNADTLTTTRRFNPYDYRGQGTQVTVSS` show?
RESULT: low polyreactivity

QUERY: Entry under review: `QVQLVESGGGLVHAGGSLRLSCAASGRTFGWYAMGWYIQAPGKERELVASITHRGGRTYYADSVKGRFTISRDNAKHTVYLQMNSLNPEDTAVYYCAAKTSTGMGYWGQCTQVTVSS` . Reported polyreactivity (PSR sort gate)?
RESULT: high polyreactivity

QUERY: Entry `QVQLVESGGGLVQAGGSHRLSCAASGITFPYYAMGCYRQAPVKERELVAAISSSGGSTYYADSVKGRFTISRDNAKNTVYLQMNSLKPEDTAVYYCNKRYVVYPGNYWRYDYWGQGTQVTVSS` has what polyreactivity (PSR sort gate)?
RESULT: high polyreactivity

QUERY: Could you tell me which polyreactivity (PSR sort gate) is on file for `QVQLVESGGGLVQAGGSLRLSCAASGRILWDYAMGWYRQAPGKERELVAAISTSSGSTYYADSVKGRFTISRDNAKNTVKLQMNSLKPEHTAVYYCAADNDYSPPWFEYWGQGTQVTVSS` ?
RESULT: low polyreactivity

QUERY: Reported polyreactivity (PSR sort gate) for `QVQLVESGGGLVQAGGSLRLSCAASGRTFYAYDMGWYRQAPGKERELVAAINSGDRTNYADSVKGRFTISRDNAKNTDYLQMNSLKPEDTAVYYCAADWYTPQGVGLDYWGQGTQVTVSS` : what is it?
RESULT: low polyreactivity

QUERY: Report polyreactivity (PSR sort gate) for `QVQRVESGGGLVQAGGSLRLSCAASGFTFRWYAMGWYRQAPGKEREMVAAISRSGASTYYADSVKGRFTISRDNAKNTVYLQMNSLKPEDTAVYYCAVLWHGRRPLYKLRTGPEYDYWGQGTQVTVSS` please.
RESULT: high polyreactivity

QUERY: Reported polyreactivity (PSR sort gate), sequence `QVQLVESGGGLVQAGGSLRLSCAASGRIFYSNAMGWYRQAPGKERELVAAISRSGVRTYYADSVKGRFTISRDNAKNTVYLQMNSLKPEDTAVYYCAADLYWWSYYYWGQGTQVTVSS` : ____
RESULT: low polyreactivity
